Value source: paper PMC8278208

- measurement_notes: Cell viability, resazurin assay, K562/Dox
- Type: cell-based, human
- recorded_conditions: human

# molecule, viability at 72 h, 10 mM (%)
records = [
    ("O=C(O)c1ccc(O)cc1 [4-HBA, 4-Hydroxybenzoic acid]", 70.4),
    ("COc1cc(C(=O)O)ccc1O [VA, 4-hydroxy-3-methoxybenzoic acid]", 41),
]

###

Reported viability at 72 h, 10 mM by item:
- measurement_notes: Cell viability, resazurin assay, K562
- Assay type: cell-based, human
- recorded_conditions: human, K562 cells (doxorubicin-sensitive leukemia)

# molecule, viability at 72 h, 10 mM
rows = [
    ("O=C(O)c1ccc(O)cc1 [4-HBA, 4-Hydroxybenzoic acid]", "90.3%"),
    ("COc1cc(C(=O)O)ccc1O [VA, 4-hydroxy-3-methoxybenzoic acid]", "58%"),
]
